tested on: MDR A. baumannii clinical isolates; test: Resistance phenotype (MICs of antibiotics) of MDR clinical isolates; type: cell-based, Acinetobacter baumannii; settings: Acinetobacter baumannii, 110193; read-out: MIC
Measured metric: MIC (µg/mL)
Supply the numeric figure in µg/mL, leaving out any unit text.

O=C(N[C@H](CO)[C@H](O)c1ccc([N+](=O)[O-])cc1)C(Cl)Cl [Chloramphenicol] = 128

Moving on to another compound below.
INPUT: Provide measured MIC value, entry: CN(C)c1ccc(O)c2c1C[C@H]1C[C@H]3[C@H](N(C)C)C(O)=C(C(N)=O)C(=O)[C@@]3(O)C(O)=C1C2=O [Minocycline]
OUTPUT: 1

----------
system: MDR P. aeruginosa clinical isolates; assay: Resistance phenotype (MICs of antibiotics) of MDR clinical isolates; type: cell-based, Pseudomonas aeruginosa; settings: Pseudomonas aeruginosa, 91433; read-out: MIC
Measured metric: MIC

Reference set (10 entries):
CN(C)c1cc(NC(=O)CNC(C)(C)C)c(O)c2c1C[C@H]1C[C@H]3[C@H](N(C)C)C(O)=C(C(N)=O)C(=O)[C@@]3(O)C(O)=C1C2=O [TGC, tigecycline] = 32 µg/mL
NC[C@H]1O[C@H](O[C@H]2[C@H](O)[C@@H](O[C@H]3O[C@H](CO)[C@@H](O)[C@H](N)[C@H]3O)[C@H](N)C[C@@H]2N)[C@H](N)C[C@@H]1O [Tobramycin] = 16 µg/mL
CO/N=C(\C(=O)N[C@@H]1C(=O)N2C(C(=O)O)=C(CSc3nc(=O)c(=O)[nH]n3C)CS[C@H]12)c1csc(N)n1 [CTR, ceftriaxone] = > 64 µg/mL
C[C@@H](O)[C@H]1C(=O)N2C(C(=O)O)=C(S[C@@H]3CN[C@H](C(=O)N(C)C)C3)[C@H](C)[C@H]12 [MER, meropenem] = 16 µg/mL
CO[C@@]1(NC(=O)Cc2cccs2)C(=O)N2C(C(=O)O)=C(COC(N)=O)CS[C@@H]21 [FOX, cefoxitin] = > 32 µg/mL
C[C@@H](O)[C@H]1C(=O)N2C(C(=O)O)=C(SCCN=CN)C[C@H]12 [IMI, imipenem] = 32 µg/mL
C[C@@H](O)[C@H]1C(=O)N2C(C(=O)O)=C(S[C@@H]3CN[C@H](CNS(N)(=O)=O)C3)[C@H](C)[C@H]12 [DOR, doripenem] = 16 µg/mL
COc1c(N2C[C@@H]3CCCN[C@@H]3C2)c(F)cc2c(=O)c(C(=O)O)cn(C3CC3)c12 [Moxifloxacin] = 16 µg/mL
Cc1nnc(SCC2=C(C(=O)O)N3C(=O)[C@@H](NC(=O)Cn4cnnn4)[C@H]3SC2)s1 [CFZ, cefazolin] = > 128 µg/mL
CNC(C)C1CCC(N)C(OC2C(N)CC(N)C(OC3OCC(C)(O)C(NC)C3O)C2O)O1 (stereo not drawn) [Gentamicin] = 32 µg/mL

INPUT: Provide measured MIC value, entry: CO/N=C(\C(=O)N[C@@H]1C(=O)N2C(C(=O)[O-])=C(C[N+]3(C)CCCC3)CS[C@H]12)c1csc(N)n1 [CPM, cefepime]
OUTPUT: 16 µg/mL

INPUT: Provide measured MIC value, entry: C[C@H]1c2cccc(O)c2C(=O)C2=C(O)[C@]3(O)C(=O)C(C(N)=O)=C(O)[C@@H](N(C)C)[C@@H]3[C@@H](O)[C@@H]21 [Doxycycline]
OUTPUT: 32 µg/mL

----------
assay: in vitro; settings: human, plasma
Reported remaining at 2 h, 1 μM by item:
Supply the numeric figure in %, leaving out any unit text.

CCCCCCCC(=O)NC(CCCNC(=N)N)CC(=O)NCCCN(CCCNC(=O)CC(CCCNC(=N)N)NC(=O)CCCCCCC)CC(=O)NC(CCCNC(=N)N)CC(N)=O (centres unmarked) [dUSTBβP 3] = 86.8

Moving on to another compound below.
INPUT: Provide measured remaining at 2 h, 1 μM value, entry: CCCCCCCC(=O)N[C@@H](CCCNC(=N)N)C(=O)NCCCN(CCCNC(=O)[C@H](CCCNC(=N)N)NC(=O)CCCCCCC)CC(=O)N[C@@H](CCCNC(=N)N)C(N)=O [di(C8-Arg)-Nbap-Arg-NH2]
OUTPUT: 39.5

----------
Experiment: in vitro
Type: cell-based
Conditions: human
Experimental: Cell viability assay was performed essentially as previously described ([[…] et al., 2019]). […] Values from the wells without cells (blank wells) were subtracted from the corresponding sample wells and cell viability values of the treated samples relative to the vehicle controls set to 100% was determined. […]
Measured metric: viability at 48 h, 125 µM (%)
Supply the numeric figure in %, leaving out any unit text.

INPUT: Provide measured viability at 48 h, 125 µM value, entry: CCCCCCCC(=O)NC(CCCNC(=N)N)CC(=O)NCCCN(CCCNC(=O)CC(CCCNC(=N)N)NC(=O)CCCCCCC)CC(=O)NC(CCCNC(=N)N)CC(N)=O (stereo not shown) [dUSTBβP 3]
OUTPUT: 86.4

----------
Test: in vitro
Type: cell-based
Settings: human
Method: The degree of hemolysis induced by dUSTBβPs was determined by the amount of hemoglobin released from human erythrocytes upon incubation. […] The plasma layer was diluted with Drabkin’s reagent and analyzed at a wavelength of 540 nm. Experiments were conducted in triplicates, and a calibration curve prepared by diluting blood (after addition of vehicle) was used to quantitate heme release. […]
Reported hemolysis at 45 min, 12.5 µM by item:
Supply the numeric figure in %, leaving out any unit text.

Reference set (2 entries):
CCCCCCCC(=O)NC(CCCCN)CC(=O)NCCCN(CCCNC(=O)CC(CCCCN)NC(=O)CCCCCCC)CC(=O)NC(CCCCN)CC(N)=O (stereo not drawn) = 3.22
CCCCCCCC(=O)NC(CCCNC(=N)N)CC(=O)NCCCN(CCCNC(=O)CC(CCCNC(=N)N)NC(=O)CCCCCCC)CC(=O)NC(CCCNC(=N)N)CC(N)=O (stereo not drawn) = 3.28

Moving on to another compound below.
INPUT: Provide measured hemolysis at 45 min, 12.5 µM value, entry: CCCCCCCC(=O)NC(CCCN)CC(=O)NCCCN(CCCNC(=O)CC(CCCN)NC(=O)CCCCCCC)CC(=O)NC(CCCN)CC(N)=O (stereo not drawn)
OUTPUT: 3.16

----------
tested on: MDR P. aeruginosa clinical isolates; assay: Resistance phenotype (MICs of antibiotics) of MDR clinical isolates; format: cell-based, Pseudomonas aeruginosa; conditions: Pseudomonas aeruginosa, 264-104354; read-out: MIC
Reported MIC by item:
Supply the numeric figure in µg/mL, leaving out any unit text.

C[C@@H](O)[C@H]1C(=O)N2C(C(=O)O)=C(S[C@@H]3CN[C@H](CNS(N)(=O)=O)C3)[C@H](C)[C@H]12 = 16
C[C@H]1c2cccc(O)c2C(=O)C2=C(O)[C@]3(O)C(=O)C(C(N)=O)=C(O)[C@@H](N(C)C)[C@@H]3[C@@H](O)[C@@H]21 = 64
C[C@H]1COc2c(N3CCN(C)CC3)c(F)cc3c(=O)c(C(=O)O)cn1c23 = 64

Moving on to another molecule below.
INPUT: Provide measured MIC value, entry: C[C@@H](O)[C@H]1C(=O)N2C(C(=O)O)=C(S[C@@H]3CN[C@H](C(=O)N(C)C)C3)[C@H](C)[C@H]12
OUTPUT: 64

----------
tested on: wild-type P. aeruginosa PAO1; assay: microbe, parasite or virus in culture; type: cell-based, Pseudomonas aeruginosa; details: PAO1; antibiotic with dUSTBβP 3 at 8 μg/mL
Measured metric: MICcombo (µg/mL)
Supply the numeric figure in µg/mL, leaving out any unit text.

Reference set (3 entries):
C[C@H]1COc2c(N3CCN(C)CC3)c(F)cc3c(=O)c(C(=O)O)cn1c23 [Levofloxacin] = 0.25
C[C@H]1[C@H](NC(=O)/C(=N\OC(C)(C)C(=O)O)c2csc(N)n2)C(=O)N1S(=O)(=O)O [Aztreonam] = 4
CC(=O)NC[C@H]1CN(c2ccc(N3CCOCC3)c(F)c2)C(=O)O1 [Linezolid] = 256

Moving on to another compound below.
INPUT: Provide measured MICcombo value, entry: NC[C@H]1O[C@H](O[C@H]2[C@H](O)[C@@H](O[C@H]3O[C@H](CO)[C@@H](O)[C@H](N)[C@H]3O)[C@H](N)C[C@@H]2N)[C@H](N)C[C@@H]1O [Tobramycin]
OUTPUT: 1

----------
experiment: Cell viability assay; assay type: cell-based; details: human
Measured metric: CC50 at 48 h (µM)
Supply the numeric figure in µM, leaving out any unit text.

CCCCCCCC(=O)NC(CCCNC(=N)N)CC(=O)NCCCN(CCCNC(=O)CC(CCCNC(=N)N)NC(=O)CCCCCCC)CC(=O)NC(CCCNC(=N)N)CC(N)=O (centres unmarked) [dUSTBβP 3] = 101

Moving on to another compound below.
INPUT: Provide measured CC50 at 48 h value, entry: COc1cccc2c1C(=O)c1c(O)c3c(c(O)c1C2=O)C[C@@](O)(C(=O)CO)C[C@@H]3O[C@H]1C[C@H](N)[C@H](O)[C@H](C)O1 [doxorubicin]
OUTPUT: 0.032
